Data provenance: the supplement of paper PMC12783771

B1: library; numbered along this chain (parent)
chain: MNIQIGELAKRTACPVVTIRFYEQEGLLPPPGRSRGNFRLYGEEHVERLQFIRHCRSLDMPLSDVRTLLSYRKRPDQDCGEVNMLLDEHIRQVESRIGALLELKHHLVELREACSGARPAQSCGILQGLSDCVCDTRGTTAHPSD

Variants of: B1
Test: sfGFP reporter fluorescence (15 h) (µM FITC); higher = higher leak
Conditions: library round: Round 0; ligand: none
Threshold rule: sfGFP reporter fluorescence greater than or equal to 0.06 is label 1; below that, label 0.

R33H : label 1
P143E : label 0
E109F : label 1
I3V : label 1
L107I : label 0
M60L P61N K104V G128M : label 1
C79F : label 0
F21W : label 1
C134V : label 1
